- System: A549/ATCC NSCLC
- MEASUREMENT_NOTES: NCI-60 one-dose screen, 48 h
- PROTOCOL_CONDITIONS: 10 µM unless noted
- Procedure: Growth inhibition of the A549/ATCC human Non-Small Cell Lung tumor cell line is measured as a screen for anti-cancer activity. Cells are grown in 96 well plates and exposed to the test compound for 48 hours. Compounds are tested at a single concentration, which is 10^-5 M for most compounds. The reported endpoint is percent growth (GI% or GIPRCNT), where numbers from 0 - 100% represent growth inhibition, and numbers from -100% - 0 represent cell death. […]
About 83,000 compounds went through this panel and 20% of them were active in at least one assay; those are over-represented in the sample as a whole. The source made the active and inactive calls. How the source made its calls: active means growth percent below 10; inactive means the rest.
Classes used: active, inactive

1. ClC1=C(Cl)C(Cl)=C(Cl)C1=C/C=C/c1ccccc1: active
2. CCOC(=O)C(C(C)=O)c1nc2sc3cc(Cl)ccc3n2c(=N)c1C#N (stereo not given): inactive
3. CCN(CC)c1ccc(N=Nc2cc(Cl)ccc2Cl)c(NC(=O)CCC(=O)O)c1: inactive
4. CCOC(=O)C1=C(C)N2C(=NC3=C(CCC/C3=C\c3ccc(Cl)cc3)C2c2ccc(Cl)cc2)S1 (stereo not given): active
5. CCOC(=O)c1c(C)nc(C)c(C(=O)OCC)c1-c1cccnc1: inactive
6. COc1ccc(-c2nn(-c3ccccc3)cc2/C=C2\SC(=S)N(CCc3ccc(O)cc3)C2=O)cc1: inactive
7. COc1ccc(-c2cc(Cc3cccs3)c(=O)n(Cn3ccc4ccccc43)n2)cc1: inactive
8. O=C(Nc1ccc(Cl)cc1)Nc1ccc(Oc2nncc3ccccc23)cc1: inactive
9. Fc1ccc(-c2nnc(-c3c(-c4ccc(F)cc4)nc4ncccn34)o2)cc1: inactive
10. Nc1nc(N)c([N+](=O)[O-])c(=O)[nH]1: inactive
